Recorded values, source the supplement of paper PMC12042874.

- experimental.protocol: amyloid nucleation score (Sup35N fusion, yeast selection) (log enrichment); library NNK3; higher = more nucleation; inactive = no reads after selection;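 further: zero at mode of non-aggregating sequences after 7 days selection at 30°C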
recorded.metric: amyloid nucleation score

- substance: "LSLKNFMSSFSSLWCGWSDD"
  recorded.metric: "amyloid nucleation score"
  measured.result: 0.689
- substance: "RYVEWYLR"
  recorded.metric: "amyloid nucleation score"
  measured.result: "inactive"
- substance: "ASLRWVLRLCRNLHTSSMET"
  recorded.metric: "amyloid nucleation score"
  measured.result: -0.824
- substance: "YRLPHS"
  recorded.metric: "amyloid nucleation score"
  measured.result: "inactive"

* * *

- experimental.protocol: amyloid nucleation score (Sup35N fusion, yeast selection) (log enrichment); library NNK3; higher = more nucleation; inactive = no reads after selection

- substance: "SNACCGWAICCSPCGGKGVS"
  amyloid nucleation score: 1.45
- substance: "LFVKMR"
  amyloid nucleation score: -0.219
- substance: "VRNLVHHPYAFL"
  amyloid nucleation score: "inactive"
- substance: "EFGLRWMS"
  amyloid nucleation score: 0.447
- substance: "MDIRERRRFFSNIRRVRYLK"
  amyloid nucleation score: "inactive"
- substance: "TDKFWLIGDSTTSWIEVVFN"
  amyloid nucleation score: "inactive"
- substance: "LTSSEQDAITLTTCGISECA"
  amyloid nucleation score: "inactive"
- substance: "YITNVQVIGMMVINSNHKGV"
  amyloid nucleation score: 3.42
- substance: "KDNPLSCLVKVNVWTKLQEG"
  amyloid nucleation score: 1.16
- substance: "CWLNLGVLKSLY"
  amyloid nucleation score: "inactive"
- substance: "MIGLDDWVLALRVRRCSLLV"
  amyloid nucleation score: "inactive"
- substance: "LHFVVFAYYKRLMDSQIC"
  amyloid nucleation score: "inactive"
- substance: "HLGKPKEFMTIAGGLHCLML"
  amyloid nucleation score: "inactive"
- substance: "FELRVV"
  amyloid nucleation score: "inactive"
- substance: "CLPQHKISNH"
  amyloid nucleation score: "inactive"
- substance: "IRERGLYEMNPYWCRGRKSM"
  amyloid nucleation score: "inactive"
- substance: "CFIVQWMLTLMCVFANCILT"
  amyloid nucleation score: "inactive"
- substance: "VVMMFVVIYIYALRRPY"
  amyloid nucleation score: 0.143
- substance: "MSMVFIVSCNDDIYTRAR"
  amyloid nucleation score: 0.119
- substance: "IALSLLKTAKIMY"
  amyloid nucleation score: "inactive"
- substance: "SYYVICGTLMIIVVYFSSYN"
  amyloid nucleation score: 1.02
- substance: "NSRSFNTFKYNYGMLGFGVA"
  amyloid nucleation score: -0.612
- substance: "FYKVYSVRLEHFCKCGIECN"
  amyloid nucleation score: "inactive"
- substance: "YACRVGVWKRVRVWNSGVSL"
  amyloid nucleation score: "inactive"
- substance: "WYRMLFIRSKDSMDKMPIFL"
  amyloid nucleation score: "inactive"
- substance: "FYSTAMCGED"
  amyloid nucleation score: "inactive"
- substance: "LRRQTSHKS"
  amyloid nucleation score: "inactive"
- substance: "CFRLPCVQESVPDKVLLTGS"
  amyloid nucleation score: "inactive"
- substance: "SFLRTVNGGRFSSVCSL"
  amyloid nucleation score: "inactive"
- substance: "MMSTTKSRDNSIKDQLSGSS"
  amyloid nucleation score: "inactive"

* * *

- experimental.protocol: amyloid nucleation score (Sup35N fusion, yeast selection) (log enrichment); library NNK1; higher = more nucleation; inactive = no reads after selection

- entry.sequence: "KREFQCWTSACFFDISSAEL"
  amyloid nucleation score: 0.34
- entry.sequence: "KTGARYSLSACYLTRTDYHW"
  amyloid nucleation score: 0.056
- entry.sequence: "NDRKYLCMMRILMSNRRVLQ"
  amyloid nucleation score: 0.553

* * *

Entries annotated with measured amyloid nucleation score
- experimental.protocol: amyloid nucleation score (Sup35N fusion, yeast selection) (log enrichment); library NNK3; higher = more nucleation; inactive = no reads after selection
recorded.metric: amyloid nucleation score

- substance: "RKFGWIRVAWCSKRIVYYSK"
  measured.result: -0.324
- substance: "LSSLYLCCYACPNMLLI"
  measured.result: 1.58
- substance: "GFSYVVNYVFFTDVKNTAAL"
  measured.result: 2.17
- substance: "GLVVWKNGINWLSEGVTIAR"
  measured.result: 0.567
- substance: "VARELGLCYVWAGSRGVSRV"
  measured.result: -0.323
- substance: "MYYRTRQELTSCPRNQNIL"
  measured.result: -0.069

* * *

Let's look at some substances and their measured amyloid nucleation score.
- experimental.protocol: amyloid nucleation score (Sup35N fusion, yeast selection) (log enrichment); library NNK2; higher = more nucleation; inactive = no reads after selection
recorded.metric: amyloid nucleation score

- substance: "LMLVVQALNHAYLLQVMSCT"
  recorded.metric: "amyloid nucleation score"
  measured.result: 0.805
- substance: "RTIVCF"
  recorded.metric: "amyloid nucleation score"
  measured.result: -0.699
- substance: "SDISNQLMFFGRWAPRVLVD"
  recorded.metric: "amyloid nucleation score"
  measured.result: -0.35
- substance: "LVWIEMVSF"
  recorded.metric: "amyloid nucleation score"
  measured.result: -0.544
- substance: "FMIMNYNQLCINRCLNGGRV"
  recorded.metric: "amyloid nucleation score"
  measured.result: 9.06
- substance: "CSCFWCRRRKNYKFLGGCGS"
  recorded.metric: "amyloid nucleation score"
  measured.result: -1.25

* * *

- experimental.protocol: amyloid nucleation score (Sup35N fusion, yeast selection) (log enrichment); library NNK2; higher = more nucleation; inactive = no reads after selection
recorded.metric: amyloid nucleation score

- substance: "LDYDKNKFWAQHLYSKQSSL"
  measured.result: 0.805
- substance: "ILVHVSFDNRFN"
  measured.result: 6.06
- substance: "LAVLGVVDNIV"
  measured.result: 0.516
- substance: "EVFACTSG"
  measured.result: 1.56
- substance: "HSLMQLYLVIFLAHFQSYGL"
  measured.result: 0.604
- substance: "DFCSLATYGKRGFCDMYYYV"
  measured.result: 0.343
- substance: "FMYLPL"
  measured.result: -0.596
- substance: "REAARRLGEKPNIAVGFDAG"
  measured.result: 0.559
- substance: "YNMMSKFNIFGYYACKSSWK"
  measured.result: 1.27
- substance: "YTGHFTSC"
  measured.result: -0.496
- substance: "FFKLNVRERYWLVKGKSRFR"
  measured.result: 2.96
- substance: "SFEFVACVVMYMCCRTMFIL"
  measured.result: -0.164
- substance: "AIRGTECYWLAWVGLAVKRR"
  measured.result: 1.12

* * *

- experimental.protocol: amyloid nucleation score (Sup35N fusion, yeast selection) (log enrichment); library NNK3; higher = more nucleation; inactive = no reads after selection
recorded.metric: amyloid nucleation score

- entry.sequence: "ILCANGYRSVFSYFLFGCAY"
  measured.result: "inactive"
- entry.sequence: "VMSGAKPARSLFLSTLQHIS"
  measured.result: "inactive"
- entry.sequence: "SNDVKNVHP"
  measured.result: "inactive"
- entry.sequence: "WFVRLLGSAFN"
  measured.result: "inactive"
- entry.sequence: "ALWWKRGVNMRNPSETRLAM"
  measured.result: "inactive"
- entry.sequence: "IDLNMQMELHGWHRVCWGCY"
  measured.result: 0.657

* * *

- experimental.protocol: amyloid nucleation score (Sup35N fusion, yeast selection) (log enrichment); library NNK1; higher = more nucleation; inactive = no reads after selection

- entry.sequence: "LNTFWKIRTNMSMGTWS"
  amyloid nucleation score: 0.79
- entry.sequence: "SSKCDLIDCSSD"
  amyloid nucleation score: "inactive"
- entry.sequence: "NVSYRSYRFVHWVNLVGSMA"
  amyloid nucleation score: "inactive"

* * *

- experimental.protocol: amyloid nucleation score (Sup35N fusion, yeast selection) (log enrichment); library NNK1; higher = more nucleation; inactive = no reads after selection
recorded.metric: amyloid nucleation score

- entry.sequence: "CANFVFCCMGE"
  measured.result: 7.4
- entry.sequence: "DDLSGRRELTLRQT"
  measured.result: 0.618
- entry.sequence: "LLSTHVMQVLPMNQAKNILK"
  measured.result: -0.935
- entry.sequence: "IVFNIYLILAKWWVTVTYSD"
  measured.result: -1.25
- entry.sequence: "NSHLVFMGMLFLRISDDFVR"
  measured.result: -0.083

* * *

// amyloid nucleation score lookup, one value per entry
- experimental.protocol: amyloid nucleation score (Sup35N fusion, yeast selection) (log enrichment); library NNK1; higher = more nucleation; inactive = no reads after selection

- entry.sequence: "VGVHRHSSWWEFAYCASRQ"
  amyloid nucleation score: -0.537
- entry.sequence: "ALVFSALLVFRCGDCAASKA"
  amyloid nucleation score: 4.25
- entry.sequence: "MSNRISLQQLDRCQDDFMA"
  amyloid nucleation score: 0.034
